system: HT-1080; test: Compound was tested for inhibitory activity against adhesion of human laminin/HT1080 cells; assay type: functional, cell-based

# smiles, units_of_measure, IC50
records = [
    ("CC(=O)OC(=O)c1ccccc1C(=O)c1ccc(F)c([N+](=O)[O-])c1", "µM", 17),
]

---

tested on: HT-1080; experiment: Compound was tested for inhibitory activity against adhesion of human collagen IV/HT1080 cell; format: functional, cell-based
readout_name: IC50 (µM)

# smiles, readout_name, observed_value
measured = [
    ("CC(=O)OC(=O)c1ccccc1C(=O)c1ccc(F)c([N+](=O)[O-])c1", "IC50", 43),
]

---

target: Integrin alpha-5/beta-1 (Homo sapiens, UniProt P05556+P08648); experiment: Inhibition of human HeLa cell adhesion to fibronectin; assay type: functional, cell-based
Sequence (P05556 21-798 limits assumed): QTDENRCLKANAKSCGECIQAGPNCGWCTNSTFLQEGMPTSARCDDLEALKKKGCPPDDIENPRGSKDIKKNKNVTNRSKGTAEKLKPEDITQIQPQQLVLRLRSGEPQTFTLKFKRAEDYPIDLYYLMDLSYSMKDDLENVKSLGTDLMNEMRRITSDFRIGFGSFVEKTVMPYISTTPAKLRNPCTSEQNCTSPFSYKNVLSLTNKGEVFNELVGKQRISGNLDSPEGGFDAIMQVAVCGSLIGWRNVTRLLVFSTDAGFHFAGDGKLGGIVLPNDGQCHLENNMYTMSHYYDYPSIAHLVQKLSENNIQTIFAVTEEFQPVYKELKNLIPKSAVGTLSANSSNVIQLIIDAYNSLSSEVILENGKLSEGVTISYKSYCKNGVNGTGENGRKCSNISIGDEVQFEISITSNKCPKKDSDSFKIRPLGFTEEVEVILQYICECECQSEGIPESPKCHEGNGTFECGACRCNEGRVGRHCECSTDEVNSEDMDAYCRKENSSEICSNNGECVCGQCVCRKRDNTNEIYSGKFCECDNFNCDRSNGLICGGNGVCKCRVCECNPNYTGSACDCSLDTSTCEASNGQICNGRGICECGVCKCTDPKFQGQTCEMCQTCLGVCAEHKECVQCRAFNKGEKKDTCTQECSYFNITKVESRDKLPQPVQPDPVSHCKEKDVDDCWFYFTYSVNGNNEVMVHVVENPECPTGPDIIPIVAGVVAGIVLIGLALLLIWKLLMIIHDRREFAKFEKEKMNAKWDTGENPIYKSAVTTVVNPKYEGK
Sequence (P08648 42-894 limits assumed): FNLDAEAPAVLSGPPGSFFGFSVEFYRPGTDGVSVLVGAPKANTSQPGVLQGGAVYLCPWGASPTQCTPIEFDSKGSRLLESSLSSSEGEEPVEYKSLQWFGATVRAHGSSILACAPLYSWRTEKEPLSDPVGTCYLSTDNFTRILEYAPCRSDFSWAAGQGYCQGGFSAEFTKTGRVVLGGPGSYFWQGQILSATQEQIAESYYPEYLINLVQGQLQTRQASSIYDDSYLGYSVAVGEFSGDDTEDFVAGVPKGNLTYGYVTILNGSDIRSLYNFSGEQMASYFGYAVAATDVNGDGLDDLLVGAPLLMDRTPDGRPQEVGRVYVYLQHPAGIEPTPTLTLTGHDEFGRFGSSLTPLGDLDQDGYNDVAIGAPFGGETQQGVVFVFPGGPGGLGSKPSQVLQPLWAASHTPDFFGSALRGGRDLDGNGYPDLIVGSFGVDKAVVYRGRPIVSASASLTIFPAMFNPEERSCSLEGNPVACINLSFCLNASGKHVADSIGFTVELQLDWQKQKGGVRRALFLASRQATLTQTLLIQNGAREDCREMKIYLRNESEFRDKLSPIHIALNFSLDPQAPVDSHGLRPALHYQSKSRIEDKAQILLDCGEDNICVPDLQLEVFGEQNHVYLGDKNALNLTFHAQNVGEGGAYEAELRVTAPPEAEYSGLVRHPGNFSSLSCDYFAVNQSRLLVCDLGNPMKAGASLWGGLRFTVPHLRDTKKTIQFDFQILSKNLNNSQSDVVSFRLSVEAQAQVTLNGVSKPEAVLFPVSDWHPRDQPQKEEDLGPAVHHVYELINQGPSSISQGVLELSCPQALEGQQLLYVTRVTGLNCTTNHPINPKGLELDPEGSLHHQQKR
Sequence (P08648 895-1049 limits assumed): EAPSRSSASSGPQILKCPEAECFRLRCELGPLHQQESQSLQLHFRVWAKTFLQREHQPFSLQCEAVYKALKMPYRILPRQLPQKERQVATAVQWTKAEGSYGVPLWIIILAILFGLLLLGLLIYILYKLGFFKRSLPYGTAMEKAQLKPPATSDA
readout_name: IC50 (µM)

# smiles, observed_value
data = [
    ("CC(=O)OC(=O)c1ccccc1C(=O)c1ccc(F)c([N+](=O)[O-])c1", 16),
]
